Source listed as PubChem BioAssay (NCI).

System: SK-MEL-28 melanoma
Assay: NCI-60 one-dose screen, 48 h
Conditions: 10 µM unless noted
This is part of a sample that, as a whole, favours compounds with a hit. Of some 83,000 tested, about 20% had one in any assay. Activity calls are given as the source filed them. How the source made its calls: active means growth percent below 10; inactive means the rest.
Select the correct class. Options are active, inactive and nothing else.

Known results for compounds:
C#Cc1cccc(NC(=O)Nc2cccc(NC(=O)CCl)c2)c1 ... inactive
COc1ccc(NC(=O)c2cc(NCc3cc(O)ccc3O)ccc2O)cc1 ... inactive
O=C(CCN1CCCC1)Nc1ccc2c(NCCc3ccccc3)c3ccccc3nc2c1 ... active
COc1ccc(/C=C2\Oc3cc(OCCCCCN4CCCCC4)ccc3C2=O)cc1OC ... inactive
O=C(CCN1CCCC1)Nc1ccc2c(NCCCc3ccccc3)c3ccccc3nc2c1 ... inactive
CCN(c1ccccc1)S(=O)(=O)c1cc([N+](=O)[O-])ccc1Cl ... inactive
O=C1Nc2cc(-c3ccc(NC(=O)c4ccccc4)cc3)ccc2/C1=C/c1ccc[nH]1 ... inactive
CCOC(=O)c1nc2c3ccccc3ccn2c1C(=O)OCC ... inactive

Field: outcome | Entry: O=c1[nH]nc(-c2ccccc2)c2sc3ncc(-c4ccc(Br)cc4)n3c12 inactive

Field: outcome | Entry: c1ccc(Cn2cnc3ccc(-c4nc(-c5ccc6c(c5)ncn6C5CCCCC5)cn5ccnc45)cc32)cc1 active

Field: outcome | Entry: C[C@H]1[C@H]2[C@H]3CC[C@@H]4[C@@]5(C)CC[C@H](O)C(C)(C)[C@@H]5CC[C@@]4(C)[C@]3(C)CC[C@]23CO[C@]1(C)[C@@H](C(=O)/C=C\c1ccco1)C3 inactive

Field: outcome | Entry: CCCCCCNC(=O)Oc1ccc(/C(=C(\C)c2ccccc2)c2ccc(OCCN3CCCCC3)cc2)cc1 inactive

====

System: HOP-62 NSCLC
Test: NCI-60 one-dose screen, 48 h (100 = growth as untreated, 0 = no growth, -100 = all killed)
Conditions: 10 µM unless noted
The panel holds about 83,000 compounds, 20% with a hit somewhere; the sample as a whole holds those more often.
# growth per entry
The reply should contain only the number, in %.

Example entries begin here.
Cc1ccc(-n2cc(-c3ccccc3)c3c2N=NN2CCN=C32)cc1 ... 97.4
COC1=CC(=O)c2ccccc2C1=O ... 44.9
COc1ccc(/C=N/NC(=O)c2cnn3c2NC(c2ccccc2)C3)cc1OC (stereo not given) ... 60
CSc1nc2sc3cccc(Cl)c3n2c(=N)c1C#N ... 97
O=C(/C=C(O)/C=C/c1ccc(SC(F)(F)F)cc1)/C=C/c1ccc(SC(F)(F)F)cc1 ... 101

Please look at COc1cc(OC)cc(C(=O)C[n+]2cccc3cc[nH]c32)c1 and tell me its recorded growth on HOP-62 NSCLC. 99.1

Please look at COc1cc(-c2n/c(=C\c3c(O)[nH]c4ccc(Cl)cc34)cc3c2=Nc2ccccc2-3)ccc1F and tell me its recorded growth on HOP-62 NSCLC. 3.23

Please look at CC1=C(C(=O)/C=C/c2c[nH]c3ccccc23)C(c2ccccc2)NC(=S)N1 (stereo not given) and tell me its recorded growth on HOP-62 NSCLC. 97.9

Please look at CCCOc1ccc(/C=N/Nc2cc(C)nc3ccc(Cl)cc23)cc1 and tell me its recorded growth on HOP-62 NSCLC. 75.2

Please look at O=C1OC(Cc2ccccc2)C1c1ccccc1 (stereo not given) and tell me its recorded growth on HOP-62 NSCLC. 104

====

# growth per entry
System: CAKI-1 renal
Experiment: NCI-60 one-dose screen, 48 h (100 = growth as untreated, 0 = no growth, -100 = all killed)
Conditions: 10 µM unless noted
Procedure: Growth inhibition of the CAKI-1 human tumor cell line is measured as a screen for anti-cancer activity. Cells are grown in 96 well plates and exposed to the test compound for 48 hours. Compounds are tested at a single concentration, which is 10^-5 M for most compounds. The reported endpoint is percent growth (GI% or GIPRCNT), where numbers from 0 - 100% represent growth inhibition, and numbers from -100% - 0 represent cell death. For example, a value of 40 represents 60% growth inhibition. […]
About 83,000 compounds went through this panel and 20% of them were active in at least one assay; those are over-represented in the sample as a whole.
The reply should contain only the number, in %.

CN(C)c1ccc(C2C(C#N)=C(/N=C/c3ccccc3)Oc3c2ccc2ccccc32)cc1 (centres undefined) ... 20.7
COC(=O)N[C@H]1CCc2c(Cl)c(OC)c(OC)c(OC)c2-c2ccc(SC)c(=O)cc21 ... 15.1
COc1ccc(C(=O)C2C(C#N)C(C#N)C3C=Cc4ccccc4N32)cc1 (centres undefined) ... 27.4

State its growth for this molecule: COc1ccc2[nH]c(=O)c(CN3CCN(c4nccc(-c5ccc(Cl)cc5)n4)CC3)cc2c1 86.7

State its growth for this molecule: CC1(C)NCCC[C@]2(C)[C@H]3CC(=O)[C@H]4[C@@H]5C[C@](C)(CO)CC[C@]5(C)CC[C@@]4(C)[C@]3(C)CC[C@@H]12 81.6

State its growth for this molecule: CN1CCN(c2ccc(NC3=C(Cl)C(=O)c4ncccc4C3=O)cc2C(F)(F)F)CC1 -95.6

State its growth for this molecule: COC(=O)C1=C(C(=O)ON)C2C=CC1(C(Cc1ccccc1)Nc1ccccc1)O2 (centres undefined) 57.3

State its growth for this molecule: O=S(=O)(Nc1ccc(-n2cnc3cc(-c4ccc(O)cc4)ccc32)cc1)c1ccccc1 68.7

====

System: NCI-H322M lung
Test: NCI-60 one-dose screen, 48 h (100 = growth as untreated, 0 = no growth, -100 = all killed)
Conditions: 10 µM unless noted
About 83,000 compounds went through this panel and 20% of them were active in at least one assay; those are over-represented in the sample as a whole. The source made the active and inactive calls. How the source made its calls: active means growth percent below 10; inactive means the rest.
# growth per entry

Cc1cc(C(=O)/C=C/c2ccc[nH]2)ccc1-n1ccc(C(F)(F)F)n1 ... 97.5% (inactive)

Please look at CN(C)CC(O)c1ccc(/C=C/c2ccc(Cl)cc2)cc1 (configuration not stated) and tell me its recorded growth on NCI-H322M lung. -9.83% (active)

Please look at Cc1nnc2c(Cc3ccccc3)nc3ccccc3n12 and tell me its recorded growth on NCI-H322M lung. 100% (inactive)

Please look at C=C1C(=O)O[C@H]2[C@H]1CC/C(CNS(=O)(=O)c1cccc3ccccc13)=C\CC[C@@]1(C)O[C@@H]21 and tell me its recorded growth on NCI-H322M lung. 91.2% (inactive)

Please look at C=C(CBr)[C@@H]1CC[C@]2(COC(C)=O)CC[C@]3(C)[C@H](CC[C@@H]4[C@@]5(C)CCCNC(C)(C)[C@@H]5CC[C@]43C)[C@@H]12 and tell me its recorded growth on NCI-H322M lung. 83.1% (inactive)

Please look at Cc1c(C(=O)NCCC(=O)NO)sc2ncnc(Nc3ccc(F)c(Cl)c3)c12 and tell me its recorded growth on NCI-H322M lung. 108% (inactive)

Please look at O=S(=O)(NCCNc1nccc(-c2c(-c3cccc(F)c3)nc3sccn23)n1)c1ccccc1 and tell me its recorded growth on NCI-H322M lung. 51.5% (inactive)

Please look at Cc1c(C(=O)NCCC(=O)NO)sc2ncnc(Nc3ccc(NC(=O)Nc4cccc(C(F)(F)F)c4)cc3)c12 and tell me its recorded growth on NCI-H322M lung. 104% (inactive)

Please look at N#C/C(=C\c1ccc([N+](=O)[O-])s1)c1nc2cc(Br)ccc2s1 and tell me its recorded growth on NCI-H322M lung. 85.6% (inactive)

Please look at O=C(O)c1ccc2c(c1)C(=O)N(Cc1ccccc1)C2=O and tell me its recorded growth on NCI-H322M lung. 96% (inactive)

Please look at COc1cc(/C=C\c2cc(OC)c(OC)c(OC)c2)cc(NC(=O)/C=C/c2cc(OC)c(OC)c(OC)c2)c1OC and tell me its recorded growth on NCI-H322M lung. 66.8% (inactive)

Please look at COc1cc(/C=C\c2cc(OC)c(OC)c(OC)c2)cc(N)c1OC and tell me its recorded growth on NCI-H322M lung. 81.3% (inactive)

Please look at CC(Sc1nc2ccccc2c(=O)n1CCc1ccc(S(N)(=O)=O)cc1)C(=O)Nc1ccc(Cl)cc1 (configuration not stated) and tell me its recorded growth on NCI-H322M lung. 73.4% (inactive)

====

System: RPMI-8226 leukemia
Assay: NCI-60 one-dose screen, 48 h (100 = growth as untreated, 0 = no growth, -100 = all killed)
Conditions: 10 µM unless noted
About 83,000 compounds went through this panel and 20% of them were active in at least one assay; those are over-represented in the sample as a whole. Active and inactive are the calls of the source. The calls were made as follows: active = growth percent below 10; inactive = the rest.
attributeMeasured: growth

Example entries begin here.
CCCCCCNC(=O)Nc1ccc2cc3ccc(NC(=O)NCCCCCC)cc3nc2c1 ... 0.729% (active)
CCC(=O)Oc1ccc(/C(=C(\C)c2ccccc2)c2ccc(OCCN3CCCCC3)cc2)cc1 ... 62.9% (inactive)
Cn1c(N2NC(=O)C(N=Nc3ccc(S(N)(=O)=O)cc3)C2=O)nc(-c2ccco2)c(C#N)c1=O (centres undefined) ... 3.99% (active)
Fc1ccc(-c2cn3c(nc4ccccc43)c(-c3ccccc3)n2)cc1 ... 111% (inactive)
COc1ccc(CNCCN2C(=O)c3ccc4c5c(ccc(c35)C2=O)C(=O)N(CCNCc2ccc(OC)c(OC)c2OC)C4=O)c(OC)c1OC ... -25% (active)

State its growth for this compound: CCNc1nc2ccc(Nc3ccnc4cc(Cl)ccc34)cc2[nH]1 86.7% (inactive)

State its growth for this compound: Cc1ccc(NC(C(=O)c2ccccc2)c2ccccc2)cc1 (centres undefined) 25.6% (inactive)

State its growth for this compound: O=C(Nc1ccc(-c2ccc3c(c2)NC(=O)/C3=C\c2ccc[nH]2)cc1)NC1CC1 87% (inactive)

State its growth for this compound: COc1cc(/C(C)=C(\c2ccc(Cl)cc2)c2ccc(OCCN3CCCC3)cc2)ccc1F 14.7% (inactive)
